meta.source: patent US20050215529A1

Tested on: A2aAR-transfected HEK293 cells
Assay Name: Comet assay in A2aAR-transfected HEK293 cells
Type: cell-based
Condition Set: Homo sapiens, 100 μM H2O2, read-out: IC50, DNA damage protection
Assay Metric: pIC50
API: returns pIC50 as number; meaning -log10 of concentration in mol/L.

Q: What value of measured pIC50 is listed for Nc1nc(Cl)nc2c1ncn2[C@@H]1O[C@H](CO)[C@@H](O)[C@H]1O [2CA, 2-chloroadenosine] ?
A: 6.85

---

Test system: human fibroblastoid M1 cells
Assay Name: Comet assay, protection against H2O2-induced DNA damage
Assay type: cell-based
Condition Set: read-out: IC50 (pM), DNA damage protection
Method: A single-cell gel electrophoresis (SCGE) assay, known as the “Comer” assay was performed to detect/quantify DNA damage by identifying DNA-strand breakage in individual cells, for example. […] The slides were placed at 4° C. in the dark for ten minutes and subsequently immersed in pre-chilled Lysis Solution at 4° C. for an additional thirty minutes. […] Quantification of comet fluorescence was performed as described in P. J. McCarthy et al. (1997) Mutagenesis 12:209-214. […]
Assay Metric: IC50 (pM)
Only the number, expressed in pM, is required.

Q: What value of measured IC50 is listed for C=C(C)CCOP(=O)(O)OP(=O)(O)O [IPP, isopentenyl diphosphate] ?
A: 17
